Target: T1, Biotin-huCGRPaSA (human, not fully specified; biotin (position not given))
T1 construct: exact construct ('aSA') not explained; also called Biotin CGRPaSA; full-length (1-37) CGRP
T1 peptide: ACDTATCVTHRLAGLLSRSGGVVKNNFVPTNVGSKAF
Test: ELISA, supernatant; relative to chimeric C245
Endpoint Label: Relative binding activity, % (%)
Express your answer in %, writing the number without its unit.

Relative binding activity, % lookup needed for hu210 (antibody, V domains shown, 3H10 HC-2/1A2 LC2-2) VH: QVQLVQSGAEVKKPGASVKVSCKASGYTFTDYNMHWVRQAPGQGLEWMGYIYPYNGHTVYNQKFRNRVTLTVDTSSSTAYMELRSLRSDDTAVYYCAREGLGGYWGQGTLVTVSS VL: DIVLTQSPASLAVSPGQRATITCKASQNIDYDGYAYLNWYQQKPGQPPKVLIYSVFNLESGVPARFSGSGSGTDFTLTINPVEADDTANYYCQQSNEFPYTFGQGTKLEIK , thanks.
73

GET /values?readout=Relative binding activity, %&item= hu18 (antibody, V domains shown, 1B2 HC-2/1F5 LC1-1) VH: QVQLVQSGAEVKKPGASVKVSCKASGYTFTDYNMHWVRQAPGQRLEWMGYIFPYNGVAVYNRKFRSRVTLTVDTSSSTAYMELSSLRSEDTAVYYCAREGLGGYWGQGTLVTVSS VL: EIVLTQSPATLSLSPGERATLSCKASQNIDFDGYAYMNWYQQKPGQAPRVLIYSVFNLESGIPARFSGSGSGTDFTLTISSLEPEDFAVYYCQQSHEVPYTFGQGTKLEIK
67
